src = paper PMC11162469

Measurement Target: rat RXFP2 (Rattus norvegicus, UniProt F7EMH8)
Sequence (F7EMH8 20-737): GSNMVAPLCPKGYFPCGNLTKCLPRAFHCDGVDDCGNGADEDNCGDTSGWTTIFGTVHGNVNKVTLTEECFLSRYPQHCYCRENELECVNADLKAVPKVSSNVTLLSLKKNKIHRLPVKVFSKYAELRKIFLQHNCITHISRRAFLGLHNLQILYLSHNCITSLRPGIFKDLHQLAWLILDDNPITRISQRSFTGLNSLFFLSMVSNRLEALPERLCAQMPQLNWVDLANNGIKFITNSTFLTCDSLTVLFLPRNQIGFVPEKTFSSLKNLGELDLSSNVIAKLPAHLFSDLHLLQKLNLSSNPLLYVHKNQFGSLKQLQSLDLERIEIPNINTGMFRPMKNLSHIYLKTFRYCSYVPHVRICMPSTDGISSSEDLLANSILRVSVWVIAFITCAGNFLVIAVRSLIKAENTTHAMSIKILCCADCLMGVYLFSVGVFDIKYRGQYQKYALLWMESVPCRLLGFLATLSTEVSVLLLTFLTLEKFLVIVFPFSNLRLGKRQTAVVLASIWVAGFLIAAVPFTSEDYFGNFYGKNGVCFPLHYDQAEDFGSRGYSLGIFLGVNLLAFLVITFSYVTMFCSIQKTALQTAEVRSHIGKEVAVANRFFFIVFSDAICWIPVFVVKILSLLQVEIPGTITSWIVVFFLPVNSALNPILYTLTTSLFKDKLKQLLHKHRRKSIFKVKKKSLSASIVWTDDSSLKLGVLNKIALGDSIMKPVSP
Test Summary: INSL3-stimulated cAMP assay in HEK293 stably expressing rat RXFP2;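 also: cAMP measured with an HitHunter kit in 384-well plates, 11-point dose–response curves up to 1 µM antibody, four-parameter variable-slope fit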
Condition Summary: INSL3 EC80-stimulated cAMP, stable expression; N = 2
Readout Label: HEK293-rat RXFP2 cAMP % Max Response (%)
Entry rule: numbers only, all in %.

Use the examples below as a reference point.
| Molecule | Readout Label | Observed |
| --- | --- | --- |
| 3H1: RXFP2 monoclonal antibody from hybridoma, recombinantly expressed in a rat IgG2b backbone (antibody, V domains shown) VH: QVQLKETGPGLVAPSQSLSITCTVSGFSLTNYGVNWVRQPPGKGLEWLVVIWSDGSTNYNSALKSRLSISKDNSKSQVFLKMNSLQTDDTAMYYCARQQGYYAMDYWGQGTSVIVSS VL: DIQMTQSPASLSVSVGETVTITCRASENIYSNLAWYQQKQGKSPQLLVYAVTNLADGVPSRFSGSGSGTQYSLKINSLQSEDFGSYYCQHFWGPPYTFGGGTKLEIK | HEK293-rat RXFP2 cAMP % Max Response | 71.6 |
| 4H5: RXFP2 monoclonal antibody from hybridoma, recombinantly expressed in a rat IgG2b backbone (antibody, V domains shown) VH: QVQLKQSGPGLVQPSQSLSITCTVSGFSLTNYGVHWVRQSPGKGLEWLGVIWRDGNTDYNAAFMSRLSITKDNSKSQVFFEMNSLQVDDTAIYYCCRGDGYYAMGYWGQGTSVTVSS VL: DIQMTQSPASLSVSVGETVTITCRASENIYSNLAWYQQRQGRSPQLLVYAATNLADGVPSRFSGSGSGTQYSLKINSLQSEDFGNYYCQHFWGSPRTFGGGTKLEIK | HEK293-rat RXFP2 cAMP % Max Response | 89.2 |
| 4H2: RXFP2 monoclonal antibody from hybridoma, recombinantly expressed in a rat IgG2b backbone (antibody, V domains shown) VH: QVQLRQSGPSLVQPSQSLSITCTVSGFSLTNYGVHWVRQSPGKGLEWLGVIWRGGNTDHNAAFMSRLSITKDNSESQVFFKMNSLQVDDTAIYYCAKAEGYYALDYWGQGTSVTVYS VL: DIQMTQSPASLSVSVGETVTITCRASENIYSNLAWYQQKQGKSPQLLVYAVTNLADGVPSRFSGSGSGTQYSLKINSLQSEDFGSYYCQHFWGTPWTFGGGTKLEIK | HEK293-rat RXFP2 cAMP % Max Response | 85.7 |

### Prompt Form field: reported HEK293-rat RXFP2 cAMP % Max Response of 4A5: RXFP2 monoclonal antibody from hybridoma, recombinantly expressed in a rat IgG2b backbone (antibody, V domains shown) VH: DVQLVESGGGLVQPGGSRKLSCAASGFTFSTFGMHWVRQAPEKGLEWVAYISSGSSTIYYADTVKGRFTISRDNPKNTLFLQMTSLRSDDTAMYYCSRSYYGSAHYFDYWGQGTTLTVSS VL: DIQMTQSPASLSVSVGETVTITCRASENIYSNLAWYQQKQGKSPQLLVYVATNLADGVPSRFSGSGSGTQYSLRINNLQSEDFGNYYCQHFWGTPPTFGGGTKLEIK
### Response 91.0
